Reported growth values follow for various compounds
Tested on: OVCAR-5 ovarian
Test: NCI-60 one-dose screen, 48 h (100 = growth as untreated, 0 = no growth, -100 = all killed)
Conditions: 10 µM unless noted
Compounds without any hit were thinned out: in the full panel of roughly 83,000, 20% have a hit.
Reply with just the number (in %).

Compound: COc1cc(/C=C\c2cc(OC)c(OC)c(OC)c2)cc(N/C=C\C(=O)c2cc(OC)c(OC)c(OC)c2)c1OC
Experimental endpoint: growth
Reported result: 31.8

Compound: CC1=C(CCCOC(=O)CN)C2=C(C)C3(CC3)[C@@](C)(O)C(=O)C2=C1
Experimental endpoint: growth
Reported result: 114

Compound: C=CC[n+]1ccc(-c2cc[n+](CC=C)cc2)cc1
Experimental endpoint: growth
Reported result: 126

Compound: CC(=O)O[C@H]1C(=O)[C@@]2(C)[C@H]([C@H](OC(=O)c3ccccc3)[C@]3(O)C[C@H](OC(=O)[C@H](OC(=O)OCC4COC(C)(C)O4)[C@@H](NC(=O)c4ccccc4)c4ccccc4)C(C)=C1C3(C)C)[C@]1(OC(C)=O)CO[C@@H]1C[C@@H]2O (some centres undefined)
Experimental endpoint: growth
Reported result: 20.8

Compound: N/C(=N/N=C/c1ccncc1)N[N+](=O)[O-]
Experimental endpoint: growth
Reported result: 94.2

Compound: C[S+]1C=Cc2ccccc2C1c1ccc(Cl)cc1 (centres undefined)
Experimental endpoint: growth
Reported result: 118

Compound: Cn1cc(-c2csc(-c3cn(CCN4CCOCC4)c4ccc(F)cc34)n2)c2cccnc21
Experimental endpoint: growth
Reported result: 75.3

Compound: O=P1(NCCCl)OCCCN1CCCl (centres undefined)
Experimental endpoint: growth
Reported result: 106

Alright, here's another compound for you.
Lab note: measured growth of Cc1cc(C)c(CBr)c(C)c1 was 96.6

====

System: SNB-75 CNS
Test: NCI-60 one-dose screen, 48 h (100 = growth as untreated, 0 = no growth, -100 = all killed)
Settings: 10 µM unless noted
This is part of a sample that, as a whole, favours compounds with a hit. Of some 83,000 tested, about 20% had one in any assay. Activity calls are given as the source filed them. How the source made its calls: active means growth percent below 10; inactive means the rest.
Experimental endpoint: growth

Molecule: C[C@]12CCc3nc(Nc4ccccc4F)sc3C1=CC[C@@H]1[C@@H]2CC[C@]2(C)C(=O)CC[C@@H]12
growth: 87.3% (inactive)

Reported growth (SNB-75 CNS) for entry COc1ccc2c(c1)c(-c1nc(-c3cn(C)c4ncccc34)cs1)cn2CCN1CCOCC1 is 63.3% (inactive)

Reported growth (SNB-75 CNS) for entry CCOC(=O)[C@@H](C)C[C@H](Cc1ccccc1)NC(=O)c1csc([C@@H](C[C@H](C(C)C)N(C)C(=O)[C@@H](NC(=O)[C@H]2CCCCN2C)C(C)(C)CC)OC(C)=O)n1 is -5.95% (active)

Reported growth (SNB-75 CNS) for entry CNC(=O)Oc1ccc(C(C)(C)C)cc1OC(=O)NC is 91% (inactive)

Reported growth (SNB-75 CNS) for entry C[C@@]12CC=C3c4nc(Nc5cccc(O)c5)sc4CC[C@]3(C)[C@H]1CC[C@]1(C)C(=O)CC[C@@H]21 is 37.3% (inactive)

Reported growth (SNB-75 CNS) for entry CCCCCCCC[n+]1ccc2ccccc2c1 is 69.4% (inactive)

Reported growth (SNB-75 CNS) for entry CN1C(=O)C23CC4(C56CC78SSC(CO)(C(=O)N7C5Nc5ccccc56)N(C)C8=O)c5ccccc5NC4N2C(=O)C1(CO)SS3 (stereo not given) is -100% (active)

Reported growth (SNB-75 CNS) for entry OCCCCCNC1CCCCC1 is 101% (inactive)

Reported growth (SNB-75 CNS) for entry Nc1ncnc2n[nH]nc12 is 90.6% (inactive)

Reported growth (SNB-75 CNS) for entry CNC(=O)Oc1ccc2c(c1)OCO2 is 98.6% (inactive)

Reported growth (SNB-75 CNS) for entry COC(=O)[C@@H](NC(=O)c1cn(CCC2CCCCC2)c2ccccc12)C(C)(C)C is 71.2% (inactive)

Reported growth (SNB-75 CNS) for entry N/C(=N\N=C\c1ccc(-c2ccccc2)cc1)N[N+](=O)[O-] is -1.49% (active)

Reported growth (SNB-75 CNS) for entry O=C(NCCN1CC1)C(=O)NCCN1CC1 is 76% (inactive)

Reported growth (SNB-75 CNS) for entry O=C(CN1CCN(C(=O)c2ccco2)CC1)Nc1ccc(Cl)cc1C(=O)c1ccccc1Cl is 67.8% (inactive)

Reported growth (SNB-75 CNS) for entry COc1ccc(S(=O)(=O)N(Cc2ccc3c(c2)C=CC(C)(C)O3)c2ccccc2)cc1OC is 83.1% (inactive)
